Molecular target: recombinant N-terminal PMS2 (residues 1-365) (Homo sapiens (Human), UniProt P54278)
Sequence (P54278 1-365): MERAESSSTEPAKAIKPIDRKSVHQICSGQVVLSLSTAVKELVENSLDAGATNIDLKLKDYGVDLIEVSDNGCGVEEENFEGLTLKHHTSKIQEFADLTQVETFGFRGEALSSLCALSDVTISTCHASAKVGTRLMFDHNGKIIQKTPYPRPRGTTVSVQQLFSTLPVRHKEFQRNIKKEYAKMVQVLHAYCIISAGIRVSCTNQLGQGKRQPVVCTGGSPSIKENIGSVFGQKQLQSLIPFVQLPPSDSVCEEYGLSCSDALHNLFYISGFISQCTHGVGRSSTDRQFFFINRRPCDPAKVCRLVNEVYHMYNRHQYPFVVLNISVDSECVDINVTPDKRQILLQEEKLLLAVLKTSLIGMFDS
Test: Fluorescence polarisation assay for PMS2
Settings: FP probe displacement; 10 nM N-terminal PMS2, 5 nM probe compound, read after 1 hour
pIC50: −log10 of the molar value.
Observation type: pIC50

Examples with their reported pIC50 follow.
> print(dat)
                                   compound  observation.type       reading
1  Cc1cccc(COc2c(C)c(O)cc(O)c2C(=O)N2CCc3ccccc3C2)c1             pIC50        > 6.00
2  Cc1c(O)cc(O)c(C(=O)N2CCCc3ccccc32)c1OCc1ccccc1             pIC50  5.00 to 6.00
3  Cc1c(O)cc(O)c(C(=O)N2Cc3ccccc3C[C@@H]2CO)c1OCc1ccccc1             pIC50  5.00 to 6.00
4     O=C(c1c(O)cc(O)cc1OCc1ccccc1)N1CCCCC1             pIC50        < 5.00

Look up pIC50 for this compound: CC(Oc1cc(O)cc(O)c1C(=O)N1Cc2ccccc2C1)c1ccccc1 (stereo not drawn)
> 6.00

# pIC50 lookup, item `COc1ccc2c(c1)CCN(C(=O)c1c(O)cc(O)c(C)c1OCc1ccccn1)C2`
< 5.00

Request the reported pIC50 associated with `Cc1c(O)cc(O)c(C(=O)N2Cc3cccc(OCC4CNC4)c3C2)c1OCc1ccccc1`
> 6.00

Value lookup for pIC50; key = `Cc1c(O)cc(O)c(C(=O)N2CCc3ccncc3C2)c1OCc1ccccc1`
5.00 to 6.00

Look up pIC50: `C=Cc1cccc2c1CN(C(=O)c1c(O)cc(O)c(C)c1OCc1ccccc1)C2`
> 6.00

###

Molecular target: recombinant N-terminal MLH1 (residues 15-340) (Homo sapiens (Human))
Sequence (P40692 15-340): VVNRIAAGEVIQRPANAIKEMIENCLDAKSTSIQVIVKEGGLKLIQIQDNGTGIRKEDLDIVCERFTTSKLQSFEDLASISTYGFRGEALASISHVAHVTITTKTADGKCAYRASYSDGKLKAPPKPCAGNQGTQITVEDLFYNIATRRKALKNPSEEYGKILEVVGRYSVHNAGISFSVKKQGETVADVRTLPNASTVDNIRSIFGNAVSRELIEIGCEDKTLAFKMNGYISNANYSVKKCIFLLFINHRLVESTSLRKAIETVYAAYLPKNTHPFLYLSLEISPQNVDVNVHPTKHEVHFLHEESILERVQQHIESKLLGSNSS
Experiment: Fluorescence polarisation assay for MLH1 (protocol for all Examples except Examples 64, 76, 90 and 95)
Type: binding
Conditions: FP probe displacement; 100 nM N-terminal MLH1, 5 nM probe compound, read after 15 minutes; all Examples except 64, 76, 90 and 95
Observation type: IC50

> print(dat)
                                   compound  reading
1  CCc1c(O)cc(O)c(C(=O)N2CCCC2)c1OCc1ccccc1 [Example 11]  > 10 µM

Form field: reported IC50 of CC(Oc1cc(O)cc(O)c1C(=O)N1CCCC1)c1ccccc1 (single isomer, unassigned) [Example 14]
> 10 µM

Reported IC50, compound O=C(c1c(O)cc(O)cc1OCc1ccccc1)N1CCc2ccccc21 [Example 71] : ____
1 to 10 µM

Can you look up the measured IC50 of O=C(c1c(O)cc(O)cc1OCc1cc[nH]n1)N1CCCC1 [Example 21] for me?
> 10 µM

Would you kindly share the measured IC50 for Cc1c(O)cc(O)c(C(=O)N2Cc3ccc(CN(C)C)cc3C2)c1OCc1ccccc1 [Example 68] ?
> 10 µM

Look up IC50 for this compound: O=C(c1c(O)cc(O)cc1OCc1ncccn1)N1CCCC1 [Example 1]
> 10 µM

Could you tell me which IC50 is on file for Cc1c(O)cc(O)c(C(=O)N2CCc3ccccc3C2)c1OCc1ccc(F)cc1 [Example 48] ?
> 10 µM

Bench note: what IC50 did COc1cccc2c1CN(C(=O)c1c(O)cc(O)cc1OCc1ccccc1)C2 [Example 19] show?
< 1 µM

# input compound: Cc1c(O)cc(O)c(C(=O)N2Cc3cccc(CO)c3C2)c1OCc1ccccc1 [Example 39] ; wanted: its IC50
> 10 µM

Find the recorded IC50 belonging to CNC(=O)c1ccc2c(c1)CN(C(=O)c1c(O)cc(O)c(C)c1OCc1ccccc1)C2 [Example 84] and report it.
> 10 µM

# lookup: IC50 of O=C(c1c(O)cc(O)cc1OCc1ccccc1)N1Cc2ccccc2C1 [Example 4]
< 1 µM

Please give the measured IC50 for this compound: CNC(=O)c1cccc2c1CN(C(=O)c1c(O)cc(O)c(C)c1OCc1ccccc1)C2 [Example 86]
> 10 µM

# lookup: IC50 of CC(=O)Nc1cccc2c1CN(C(=O)c1c(O)cc(O)c(C)c1OCc1ccccc1)C2 [Example 87]
> 10 µM

Query: IC50; subject: COc1ccc2c(c1)CCN(C(=O)c1c(O)cc(O)c(C)c1OCc1ccccc1)C2 [Example 41]
> 10 µM

Could you tell me which IC50 is on file for Cc1c(O)cc(O)c(C(=O)N2CCc3cccnc3C2)c1OCc1ccccc1 [Example 53] ?
> 10 µM

Which IC50 value is on record for Cc1c(O)cc(O)c(C(=O)N2Cc3ccccc3C2CO)c1OCc1ccccc1 (stereo not drawn) [Example 63] ?
> 10 µM

// lookup IC50 for CC(Oc1cc(O)cc(O)c1C(=O)N1Cc2ccccc2C1)c1ccccc1 (stereo not drawn) [Example 27]
1 to 10 µM

Fill blank: measured IC50 of the compound COc1cc2c(cc1OC)CN(C(=O)c1c(O)cc(O)cc1OC(C)c1ccccc1)C2 (stereo not drawn) [Example 29] is ____.
1 to 10 µM
